target: ALDH9A1 (Homo sapiens, UniProt P49189); construct: recombinant ALDH9A1; assay: MST; also inhibition of TMABAL and ABAL oxidation at […]; type: binding
Sequence (P49189 whole entry): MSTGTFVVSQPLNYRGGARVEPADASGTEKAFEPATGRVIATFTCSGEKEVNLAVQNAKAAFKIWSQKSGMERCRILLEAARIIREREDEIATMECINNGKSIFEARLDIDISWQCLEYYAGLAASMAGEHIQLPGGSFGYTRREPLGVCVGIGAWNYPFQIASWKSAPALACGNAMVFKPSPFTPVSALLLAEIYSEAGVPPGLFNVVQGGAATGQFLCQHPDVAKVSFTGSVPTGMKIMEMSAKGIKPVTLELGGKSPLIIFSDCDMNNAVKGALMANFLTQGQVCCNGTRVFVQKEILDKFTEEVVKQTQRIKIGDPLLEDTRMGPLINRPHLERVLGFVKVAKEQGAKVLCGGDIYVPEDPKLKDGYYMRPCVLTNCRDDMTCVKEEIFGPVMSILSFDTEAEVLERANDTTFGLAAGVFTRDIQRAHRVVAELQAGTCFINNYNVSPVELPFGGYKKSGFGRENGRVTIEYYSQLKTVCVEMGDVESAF
pKd: −log10 of the molar value.

{"COMPOUND": "C[N+](C)(C)NCCC(=O)[O-] [meldonium]", "pKd": 2.92}

---

molecular target: ALDH9A1 (Homo sapiens); construct: recombinant ALDH9A1; test: inhibition of TMABAL oxidation by purified enzyme (NADH formation); preincubation and dialysis; also slow substrate
pIC50: −log10 of the molar value.

{"CHEMICAL_STRUCTURE": "CC(C)=CCC/C(C)=C/CC/C(C)=C/C=O", "pIC50": "~5.00"}
